Target: human Y4 receptor (human, UniProt P50391 1-375)
Sequence (P50391 whole entry): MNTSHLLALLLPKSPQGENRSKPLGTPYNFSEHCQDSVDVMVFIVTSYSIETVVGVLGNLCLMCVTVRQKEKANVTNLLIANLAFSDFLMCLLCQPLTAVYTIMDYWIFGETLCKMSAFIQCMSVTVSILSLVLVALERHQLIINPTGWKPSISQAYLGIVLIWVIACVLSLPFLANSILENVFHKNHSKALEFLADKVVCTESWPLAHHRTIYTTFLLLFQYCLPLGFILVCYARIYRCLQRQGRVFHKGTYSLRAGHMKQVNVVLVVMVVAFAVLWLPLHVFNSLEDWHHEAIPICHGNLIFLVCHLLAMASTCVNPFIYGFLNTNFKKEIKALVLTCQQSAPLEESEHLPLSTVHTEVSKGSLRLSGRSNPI
Assay: 125I-PP displacement
attribute measured: IC50
Number first, unit second.

binder="AAPLEPVYPGDNATPEQMAQYAADLRKYINMLTRPRY [6668]" attribute_measured=IC50 result="280 pM"
binder="PLEPVYPGDDATPQQMAQYAAALRRYINMLTRPRY [6666]" attribute_measured=IC50 result="110 pM"
binder="APLEPFYPGDDATPQQMAQYAAELRRYINMLTRPRY [6817]" attribute_measured=IC50 result="200 pM"
binder="APLEPFYPGDNATPEQMAQYAAELRRYINMLTRPRY [6829]" attribute_measured=IC50 result="200 pM"

Shifting focus to the binder that follows.
stdin: Report IC50, nothing else, for this binder: AAPLEPFYPGDNATPEQMAQYAAALRRYINLLTRPRY [6811]
stdout: 200 pM
